- Test Method Notes: In vivo pharmacokinetics of I-28 and its metabolite I-45 in mice (i.v. and p.o.)
- Design: species or system Male C57 BL/6 mice
- Particulars: male, C57 BL/6, iv; i.v., I-28 2.2 mg/kg, I-28 in mouse plasma, n = 2
Parameter Measured: clearance (mL/min/kg)

[[record]]
molecule = "[2H]C([2H])([2H])N(C([2H])([2H])[2H])C([2H])([2H])C([2H])([2H])c1c[nH]c2cccc(OC(=O)CCCCCCC/C=C\\C/C=C\\CCCCC)c12 [Compound I-28]"
endpoint_result = 385


---

- Test Method Notes: In vivo pharmacokinetics of I-28 and its metabolite I-45 in mice (i.v. and p.o.)
- Set-up: species or system Male C57 BL/6 mice
- Particulars: male, C57 BL/6, po; p.o., I-28 22 mg/kg (equimolar to 10 mg/kg metabolite), I-28 in mouse plasma
Parameter Measured: Tmax (h)

[[record]]
smiles_input = "[2H]C([2H])([2H])N(C([2H])([2H])[2H])C([2H])([2H])C([2H])([2H])c1c[nH]c2cccc(OC(=O)CCCCCCC/C=C\\C/C=C\\CCCCC)c12"
parameter_measured = "Tmax"
endpoint_result = 2.17


---

- Test Method Notes: In vivo pharmacokinetics of I-28 and its metabolite I-45 in mice (i.v. and p.o.)
- Design: species or system Male C57 BL/6 mice
- Particulars: male, C57 BL/6, iv; i.v., I-28 2.2 mg/kg, I-28 in mouse plasma, n = 2
Parameter Measured: AUC(0-inf)

[[record]]
smiles_input = "[2H]C([2H])([2H])N(C([2H])([2H])[2H])C([2H])([2H])C([2H])([2H])c1c[nH]c2cccc(OC(=O)CCCCCCC/C=C\\C/C=C\\CCCCC)c12"
parameter_measured = "AUC(0-inf)"
endpoint_result = "137 ng·h/mL"


---

- Test Method Notes: In vivo pharmacokinetics of I-28 and its metabolite I-45 in mice (i.v. and p.o.)
- Set-up: species or system Male C57 BL/6 mice
- Particulars: male, C57 BL/6, iv; i.v., I-28 2.2 mg/kg, I-28 in mouse plasma, n = 2; read-out: Apparent t1/2 (converted)
Parameter Measured: half-life (h)

[[record]]
molecule = "[2H]C([2H])([2H])N(C([2H])([2H])[2H])C([2H])([2H])C([2H])([2H])c1c[nH]c2cccc(OC(=O)CCCCCCC/C=C\\C/C=C\\CCCCC)c12 [Compound I-28]"
endpoint_result = 4.92


---

Below: a set of entries, each annotated with reported microsomal CLint at 2 μM.
- Test Method Notes: Liver microsomes stability, rat
- Particulars: male, rat, microsomes
Parameter Measured: microsomal CLint at 2 μM (µL/min/mg)

[[record]]
compound = "[2H]C([2H])([2H])N(C([2H])([2H])[2H])C([2H])([2H])C([2H])([2H])c1c[nH]c2cccc(O)c12 [Compound I-45]"
endpoint_result = 13.1

[[record]]
compound = "[2H]C([2H])([2H])N(C([2H])([2H])[2H])C([2H])([2H])C([2H])([2H])c1c[nH]c2cccc(OCc3ccccc3)c12 [Compound I-46]"
endpoint_result = 39

[[record]]
compound = "[2H]C([2H])([2H])N(C([2H])([2H])[2H])C([2H])([2H])C([2H])([2H])c1c[nH]c2cccc(OC(=O)CCCCCCC/C=C\\C/C=C\\CCCCC)c12 [Compound I-28]"
endpoint_result = 35.1

